These data points were gathered from ChEMBL document CHEMBL1154514.

# assay system: Angiotensin-converting enzyme (Homo sapiens)
# Sequence (P12821 whole entry): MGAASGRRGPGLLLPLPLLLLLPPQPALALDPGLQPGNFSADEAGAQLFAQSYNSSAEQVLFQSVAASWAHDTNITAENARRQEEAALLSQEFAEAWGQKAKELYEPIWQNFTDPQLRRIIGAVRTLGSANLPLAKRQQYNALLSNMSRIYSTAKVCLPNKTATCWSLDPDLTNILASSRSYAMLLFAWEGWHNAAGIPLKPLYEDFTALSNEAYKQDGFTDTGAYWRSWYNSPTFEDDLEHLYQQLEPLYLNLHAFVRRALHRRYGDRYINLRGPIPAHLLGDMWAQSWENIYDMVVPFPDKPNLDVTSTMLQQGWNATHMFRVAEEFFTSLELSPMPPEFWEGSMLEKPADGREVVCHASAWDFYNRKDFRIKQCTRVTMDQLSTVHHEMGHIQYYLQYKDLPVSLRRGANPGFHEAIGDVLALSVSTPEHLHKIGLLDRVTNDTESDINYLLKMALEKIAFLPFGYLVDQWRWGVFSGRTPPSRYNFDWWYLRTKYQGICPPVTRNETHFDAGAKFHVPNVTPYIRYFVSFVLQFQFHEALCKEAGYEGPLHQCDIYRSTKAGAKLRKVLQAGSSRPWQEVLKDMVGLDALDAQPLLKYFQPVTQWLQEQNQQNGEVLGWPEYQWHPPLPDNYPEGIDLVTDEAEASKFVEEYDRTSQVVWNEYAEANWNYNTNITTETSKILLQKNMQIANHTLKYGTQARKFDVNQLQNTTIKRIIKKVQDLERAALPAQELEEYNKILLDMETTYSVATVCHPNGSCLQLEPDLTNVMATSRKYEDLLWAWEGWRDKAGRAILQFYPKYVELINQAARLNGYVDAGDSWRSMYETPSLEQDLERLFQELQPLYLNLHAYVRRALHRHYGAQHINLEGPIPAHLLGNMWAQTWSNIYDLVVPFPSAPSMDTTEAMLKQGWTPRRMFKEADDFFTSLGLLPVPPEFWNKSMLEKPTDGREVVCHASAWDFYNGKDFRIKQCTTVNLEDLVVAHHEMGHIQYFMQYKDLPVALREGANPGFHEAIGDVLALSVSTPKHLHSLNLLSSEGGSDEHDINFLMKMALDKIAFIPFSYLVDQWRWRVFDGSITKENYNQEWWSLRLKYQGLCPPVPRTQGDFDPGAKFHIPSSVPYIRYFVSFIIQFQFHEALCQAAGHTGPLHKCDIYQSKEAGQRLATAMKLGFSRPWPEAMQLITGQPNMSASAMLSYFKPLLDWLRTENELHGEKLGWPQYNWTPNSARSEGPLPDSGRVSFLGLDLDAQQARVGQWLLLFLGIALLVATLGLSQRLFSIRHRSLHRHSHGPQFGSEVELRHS
# assay: Inhibition of angiotensin-converting enzyme in whole blood by HPLC
IC50 values, listed per item
A number alone suffices; assume nM.

Solved cases below.
INSERT INTO results (compound, observation_type, result_value) VALUES
  ('CC(C)c1ccc(C(C)SC[C@H](NC(=O)[C@H](C)CS)C(=O)O)cc1 (stereo partly specified)', 'IC50', 200),
  ('C[C@H](CS)C(=O)N[C@@H](CSCc1ccc(N(C)C)cc1)C(=O)O', 'IC50', 520),
  ('CC(C)c1ccc(C(SC[C@H](NC(=O)[C@H](C)CS)C(=O)O)C(C)C)cc1 (stereo partly specified)', 'IC50', 430),
  ('CSc1ccc(CSC[C@H](NC(=O)[C@H](C)CS)C(=O)O)cc1', 'IC50', 300),
  ('C[C@H](CS)C(=O)N[C@@H](CSCc1ccc(F)cc1)C(=O)O', 'IC50', 100);

Summary line: CCN(CC)c1ccc(CSC[C@H](NC(=O)[C@H](C)CS)C(=O)O)cc1 , Angiotensin-converting enzyme (Homo sapiens), reported IC50 = 4600

Bench note, Angiotensin-converting enzyme (Homo sapiens): C[C@H](CS)C(=O)N[C@@H](CSCc1ccc(C#N)cc1)C(=O)O , IC50 reads 300

Param item: C[C@H](CS)C(=O)N[C@@H](CSCc1ccc(S(C)(=O)=O)cc1)C(=O)O ; param system: Angiotensin-converting enzyme (Homo sapiens); output IC50: 300

Per the reported Angiotensin-converting enzyme (Homo sapiens) data, COc1ccc(CSC[C@H](NC(=O)[C@H](C)CS)C(=O)O)cc1 has IC50 of 100

Observed IC50, Angiotensin-converting enzyme (Homo sapiens), C[C@H](CS)C(=O)N[C@@H](CSCc1ccc(Cl)cc1)C(=O)O : 250

Record CC(C)c1ccc(C(C)(C)SC[C@H](NC(=O)[C@H](C)CS)C(=O)O)cc1 ; system Angiotensin-converting enzyme (Homo sapiens); IC50 = 260

The reported IC50 value, Angiotensin-converting enzyme (Homo sapiens), for C[C@H](CS)C(=O)N[C@@H](CSCc1ccc(OC(F)(F)F)cc1)C(=O)O reads 260

IC50 for Angiotensin-converting enzyme (Homo sapiens) with input C[C@H](CS)C(=O)N[C@@H](CSCc1ccc(-c2ccccc2)cc1)C(=O)O equals 280

Let me check: C[C@H](CS)C(=O)N[C@@H](CSCc1ccc(Br)cc1)C(=O)O , system Angiotensin-converting enzyme (Homo sapiens), measured IC50 is 280

----------
# assay system: Leukotriene A-4 hydrolase (Cavia porcellus, UniProt P19602)
# Sequence (P19602 whole entry): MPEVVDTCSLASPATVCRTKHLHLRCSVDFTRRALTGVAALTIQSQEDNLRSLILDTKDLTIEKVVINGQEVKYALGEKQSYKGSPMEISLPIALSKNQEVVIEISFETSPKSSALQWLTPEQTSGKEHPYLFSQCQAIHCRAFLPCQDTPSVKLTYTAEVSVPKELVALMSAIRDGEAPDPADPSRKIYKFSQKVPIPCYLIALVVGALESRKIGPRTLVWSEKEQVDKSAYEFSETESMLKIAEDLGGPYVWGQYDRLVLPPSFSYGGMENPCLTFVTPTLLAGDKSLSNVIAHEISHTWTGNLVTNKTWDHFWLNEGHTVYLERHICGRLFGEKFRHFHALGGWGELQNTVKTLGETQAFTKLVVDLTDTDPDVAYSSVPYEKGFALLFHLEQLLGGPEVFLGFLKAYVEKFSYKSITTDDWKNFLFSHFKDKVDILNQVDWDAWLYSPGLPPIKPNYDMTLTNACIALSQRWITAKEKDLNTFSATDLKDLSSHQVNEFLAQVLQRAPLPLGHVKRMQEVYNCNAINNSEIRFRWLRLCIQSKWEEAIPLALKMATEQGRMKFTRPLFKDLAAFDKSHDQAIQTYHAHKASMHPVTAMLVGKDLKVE
# assay: Inhibition of LTA4 hydrolase in guinea pig lung assessed as inhibition of LTB4 production
# condition context: read-out: pIC50 (converted)
# note: boundary value 300 nM maps to not fulfilled; IC50 below it maps to fulfilled

// known answers, use as guide
INSERT INTO assay_data (smiles, category) VALUES
  ('C[C@H](CS)C(=O)N[C@@H](CSCc1ccc(C(F)(F)F)cc1)C(=O)O', 'fulfilled'),
  ('C[C@H](CS)C(=O)N[C@@H](CSCc1ccc(N(C)C)cc1)C(=O)O', 'fulfilled');

Req: Dear reviewer, please state whether C[C@H](CS)C(=O)N[C@@H](CSCc1ccc(Br)cc1)C(=O)O has IC50 strictly beneath 300 nM.
Resp: not fulfilled

Req: Problem: For the molecule Cc1ccc(CSC[C@H](NC(=O)[C@H](C)CS)C(=O)O)cc1 , is IC50 under 300 nM?
Resp: not fulfilled

Req: hey, is IC50 for C[C@H](CS)C(=O)N[C@@H](CSCc1ccc(-c2ccccc2)cc1)C(=O)O lower than 300 nM or not?
Resp: fulfilled

Req: Below 300 nM on IC50? Entry C[C@H](CS)C(=O)N[C@@H](CSCc1ccc(F)cc1)C(=O)O
Resp: not fulfilled

----------
# assay system: Leukotriene A-4 hydrolase (Cavia porcellus)
# Sequence (P19602 whole entry): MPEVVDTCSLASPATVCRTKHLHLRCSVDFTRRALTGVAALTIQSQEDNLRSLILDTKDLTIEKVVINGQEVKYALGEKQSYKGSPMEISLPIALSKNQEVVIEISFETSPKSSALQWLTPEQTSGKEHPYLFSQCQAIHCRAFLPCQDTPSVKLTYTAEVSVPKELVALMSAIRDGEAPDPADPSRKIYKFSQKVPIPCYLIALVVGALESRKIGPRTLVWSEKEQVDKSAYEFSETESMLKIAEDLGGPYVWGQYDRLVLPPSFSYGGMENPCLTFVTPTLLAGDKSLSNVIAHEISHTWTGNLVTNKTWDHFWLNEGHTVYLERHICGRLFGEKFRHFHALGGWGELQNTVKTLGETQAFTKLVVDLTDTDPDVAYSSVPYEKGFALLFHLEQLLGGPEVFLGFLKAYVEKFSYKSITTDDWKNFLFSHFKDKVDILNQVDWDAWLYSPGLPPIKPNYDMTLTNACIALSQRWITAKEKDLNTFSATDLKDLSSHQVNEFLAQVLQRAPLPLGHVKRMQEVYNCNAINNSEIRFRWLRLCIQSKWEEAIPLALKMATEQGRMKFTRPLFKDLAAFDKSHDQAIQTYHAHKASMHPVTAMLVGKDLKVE
# assay: Inhibition of LTA4 hydrolase in guinea pig lung assessed as inhibition of LTB4 production
# condition context: read-out: IC50
observation type: pIC50
pIC50 here is simply -log10 of the concentration when that concentration is written in mol/L.

Field: example entries. Status: answers known.
INSERT INTO measurements (compound, result_value) VALUES
  ('C[C@H](CS)C(=O)N[C@@H](CSCc1ccc(C#N)cc1)C(=O)O', 6.28),
  ('CN(C)c1ccc(CSC[C@H](NC(=O)CS)C(=O)O)cc1', 6.33),
  ('C[C@H](CS)C(=O)N[C@@H](CSCc1ccc(OC(F)(F)F)cc1)C(=O)O', 6.40),
  ('CCOc1ccc(CSC[C@H](NC(=O)[C@H](C)CS)C(=O)O)cc1', 6.19),
  ('CC(C)c1ccc(C(SC[C@H](NC(=O)[C@H](C)CS)C(=O)O)c2ccccc2)cc1 (some centres undefined)', 7.04);

Please look at the following compound next.
COc1ccc(CSC[C@H](NC(=O)[C@H](C)CS)C(=O)O)cc1 has a reported pIC50 of 5.62

----------
# assay system: UniProtKB P19602
# assay: Inhibition of LTA4 hydrolase in guinea pig lung assessed as inhibition of LTB4 production
# condition context: read-out: IC50
# maps each entry to its IC50
The reply should contain only the number, in nM.

Known value: UniProtKB P19602 IC50 of the compound C[C@H](CS)C(=O)N[C@@H](CSCc1ccc(Br)cc1)C(=O)O equals 610

Tested on UniProtKB P19602: CCCC(SC[C@H](NC(=O)[C@H](C)CS)C(=O)O)c1ccc(C(C)C)cc1 (stereo not given in full) . Observed IC50: 180

The value of IC50 recorded for CC(C)c1ccc(C(SC[C@H](NC(=O)[C@H](C)CS)C(=O)O)C(C)C)cc1 (stereo not given in full) when tested on UniProtKB P19602 reads 520

----------
Recorded pIC50 by entry
# assay system: Angiotensin-converting enzyme (Homo sapiens)
# assay: Inhibition of angiotensin-converting enzyme in whole blood by HPLC
Reminder that pIC50 means the negative base-10 logarithm of the concentration expressed in mol/L.

// below: answered compounds
INSERT INTO results (compound, assay_system, observation_type, result_value) VALUES
  ('CCCC(SC[C@H](NC(=O)[C@H](C)CS)C(=O)O)c1ccc(C(C)C)cc1 (some centres not stated)', 'Angiotensin-converting enzyme (Homo sapiens)', 'pIC50', 6.38),
  ('C[C@H](CS)C(=O)N[C@@H](CSCc1ccc(C(F)(F)F)cc1)C(=O)O', 'Angiotensin-converting enzyme (Homo sapiens)', 'pIC50', 6.47),
  ('CCC(SC[C@H](NC(=O)[C@H](C)CS)C(=O)O)c1ccc(C(C)C)cc1 (some centres not stated)', 'Angiotensin-converting enzyme (Homo sapiens)', 'pIC50', 6.47),
  ('CCOc1ccc(CSC[C@H](NC(=O)[C@H](C)CS)C(=O)O)cc1', 'Angiotensin-converting enzyme (Homo sapiens)', 'pIC50', 6.47),
  ('CCCCC(SC[C@H](NC(=O)[C@H](C)CS)C(=O)O)c1ccc(C(C)C)cc1 (some centres not stated)', 'Angiotensin-converting enzyme (Homo sapiens)', 'pIC50', 5.44);

Param item: C[C@H](CS)C(=O)N[C@@H](CSCc1ccc(Oc2ccccc2)cc1)C(=O)O ; param system: Angiotensin-converting enzyme (Homo sapiens); output pIC50: 6.43

Field pIC50 (Angiotensin-converting enzyme (Homo sapiens)), entry CC(C)c1ccc(C(SC[C@H](NC(=O)[C@H](C)CS)C(=O)O)c2ccccc2)cc1 (some centres not stated) : 5.77

Query CCc1ccc(CSC[C@H](NC(=O)[C@H](C)CS)C(=O)O)cc1 on Angiotensin-converting enzyme (Homo sapiens); pIC50 returned: 7.68

Fill in: Angiotensin-converting enzyme (Homo sapiens) pIC50 for CC(C)c1ccc(CSC[C@H](NC(=O)[C@H](C)CS)C(=O)O)cc1 = 6.52

The reported Angiotensin-converting enzyme (Homo sapiens) pIC50 of C[C@H](CS)C(=O)N[C@@H](CSCc1ccc(I)cc1)C(=O)O is 6.85
